Consider the following molecules; for each one, report its MIC.
tested on: P. aeruginosa; experiment: microbe, parasite or virus in culture; settings: Pseudomonas aeruginosa, P. aeruginosa isolate 24, strain 34; agent alone
Remember to follow the number with its unit.

The cases that follow already have their MIC on record.
>  <Smiles Entry>
CC(C)(O/N=C(\C(=O)N[C@@H]1C(=O)N2C(C(=O)[O-])=C(C[n+]3ccccc3)CS[C@H]12)c1csc(N)n1)C(=O)O

>  <Measurement Name>
MIC

>  <Reported Measurement>
32 µg/mL

$$$$
>  <Smiles Entry>
NC[C@H]1O[C@H](O[C@H]2[C@H](O)[C@@H](O[C@H]3O[C@H](CO)[C@@H](O)[C@H](N)[C@H]3O)[C@H](N)C[C@@H]2N)[C@H](N)C[C@@H]1O

>  <Measurement Name>
MIC

>  <Reported Measurement>
64 µg/mL

$$$$

Please supply MIC for each of the following items, keeping them in order.
1. CCN1CCN(C(=O)N[C@@H](C(=O)N[C@@H]2C(=O)N3[C@@H]2SC(C)(C)[C@@H]3C(=O)O)c2ccccc2)C(=O)C1=O
2. C[C@@H](O)[C@H]1C(=O)N2C(C(=O)O)=C(SCCN=CN)C[C@H]12

["1020 µg/mL", "512 µg/mL"]

====

system: P. aeruginosa; assay: microbe, parasite or virus in culture; conditions: Pseudomonas aeruginosa, P. aeruginosa isolate 28, strain 15036; agent alone
Measurement Name: MIC
Remember to follow the number with its unit.

The cases that follow already have their MIC on record.
>  <Smiles Entry>
CCN1CCN(C(=O)N[C@@H](C(=O)N[C@@H]2C(=O)N3[C@@H]2SC(C)(C)[C@@H]3C(=O)O)c2ccccc2)C(=O)C1=O

>  <Measurement Name>
MIC

>  <Reported Measurement>
1020 µg/mL

$$$$
>  <Smiles Entry>
NC[C@H]1O[C@H](O[C@H]2[C@H](O)[C@@H](O[C@H]3O[C@H](CO)[C@@H](O)[C@H](N)[C@H]3O)[C@H](N)C[C@@H]2N)[C@H](N)C[C@@H]1O

>  <Measurement Name>
MIC

>  <Reported Measurement>
1 µg/mL

$$$$
>  <Smiles Entry>
C[C@@H](O)[C@H]1C(=O)N2C(C(=O)O)=C(SCCN=CN)C[C@H]12

>  <Measurement Name>
MIC

>  <Reported Measurement>
16 µg/mL

$$$$
>  <Smiles Entry>
O=C(O)c1cn(C2CC2)c2cc(N3CCNCC3)c(F)cc2c1=O

>  <Measurement Name>
MIC

>  <Reported Measurement>
16 µg/mL

$$$$

Okay, next one:
Any idea what MIC was measured for CC(C)(O/N=C(\C(=O)N[C@@H]1C(=O)N2C(C(=O)[O-])=C(C[n+]3ccccc3)CS[C@H]12)c1csc(N)n1)C(=O)O ? 2 µg/mL

====

Consider the following molecules; for each one, report its MIC.
Test system: X. maltophila
Experiment: Synergy of peptide and antibiotic, MIC and FIC (checkerboard)
Format: cell-based
Details: X. maltophila isolate 43, strain TF29-2; agent alone
Method: FICs are performed by checkerboard titrations of peptides in one dimension of a microtiter plate, and of antibiotics in the other dimension, for example. The FIC is calculated by looking at the impact of one antibiotic on the MIC of the other and vice versa. […] Preferably, an FIC of less than 0.5 is obtained for synergism. As used herein, FIC can be determined as follows: [formula] Synergism is identified as an FIC of about ≦0.5.
Numbers only, in µg/mL.

The cases that follow already have their MIC on record.
>  <Smiles Entry>
NC[C@H]1O[C@H](O[C@H]2[C@H](O)[C@@H](O[C@H]3O[C@H](CO)[C@@H](O)[C@H](N)[C@H]3O)[C@H](N)C[C@@H]2N)[C@H](N)C[C@@H]1O

>  <Reported Measurement>
2

$$$$
>  <Smiles Entry>
O=C(O)c1cn(C2CC2)c2cc(N3CCNCC3)c(F)cc2c1=O

>  <Reported Measurement>
8

$$$$
>  <Smiles Entry>
CC(C)(O/N=C(\C(=O)N[C@@H]1C(=O)N2C(C(=O)[O-])=C(C[n+]3ccccc3)CS[C@H]12)c1csc(N)n1)C(=O)O

>  <Reported Measurement>
4

$$$$

Okay, next one:
Any idea what MIC was measured for CCN1CCN(C(=O)N[C@@H](C(=O)N[C@@H]2C(=O)N3[C@@H]2SC(C)(C)[C@@H]3C(=O)O)c2ccccc2)C(=O)C1=O ? 1020

====

test system: P. aeruginosa; experiment: microbe, parasite or virus in culture; settings: Pseudomonas aeruginosa, P. aeruginosa isolate 29, strain 15545; agent alone
Consider the following molecules; for each one, report its MIC.
Numbers only, in µg/mL.

>  <Smiles Entry>
NC[C@H]1O[C@H](O[C@H]2[C@H](O)[C@@H](O[C@H]3O[C@H](CO)[C@@H](O)[C@H](N)[C@H]3O)[C@H](N)C[C@@H]2N)[C@H](N)C[C@@H]1O

>  <Target>
P. aeruginosa

>  <Reported Measurement>
2

$$$$
>  <Smiles Entry>
CC(C)(O/N=C(\C(=O)N[C@@H]1C(=O)N2C(C(=O)[O-])=C(C[n+]3ccccc3)CS[C@H]12)c1csc(N)n1)C(=O)O

>  <Target>
P. aeruginosa

>  <Reported Measurement>
8

$$$$
>  <Smiles Entry>
CCN1CCN(C(=O)N[C@@H](C(=O)N[C@@H]2C(=O)N3[C@@H]2SC(C)(C)[C@@H]3C(=O)O)c2ccccc2)C(=O)C1=O

>  <Target>
P. aeruginosa

>  <Reported Measurement>
512

$$$$

Any idea what MIC was measured for C[C@@H](O)[C@H]1C(=O)N2C(C(=O)O)=C(SCCN=CN)C[C@H]12 ? 256

====

Consider the following molecules; for each one, report its MIC.
tested on: E. cloacae; assay: Synergy of peptide and antibiotic, MIC and FIC (checkerboard); assay type: cell-based; details: Enterobacter cloacae, E. cloacae isolate 13, strain 37-1; agent alone
Answers are plain numbers, in µg/mL.

The cases that follow already have their MIC on record.
>  <Smiles Entry>
C[C@@H](O)[C@H]1C(=O)N2C(C(=O)O)=C(SCCN=CN)C[C@H]12

>  <Unit Descriptor>
µg/mL

>  <MIC>
2

$$$$
>  <Smiles Entry>
CC(C)(O/N=C(\C(=O)N[C@@H]1C(=O)N2C(C(=O)[O-])=C(C[n+]3ccccc3)CS[C@H]12)c1csc(N)n1)C(=O)O

>  <Unit Descriptor>
µg/mL

>  <MIC>
2

$$$$
>  <Smiles Entry>
CCN1CCN(C(=O)N[C@@H](C(=O)N[C@@H]2C(=O)N3[C@@H]2SC(C)(C)[C@@H]3C(=O)O)c2ccccc2)C(=O)C1=O

>  <Unit Descriptor>
µg/mL

>  <MIC>
4

$$$$

Okay, next one:
Any idea what MIC was measured for NC[C@H]1O[C@H](O[C@H]2[C@H](O)[C@@H](O[C@H]3O[C@H](CO)[C@@H](O)[C@H](N)[C@H]3O)[C@H](N)C[C@@H]2N)[C@H](N)C[C@@H]1O ? 1

====

system: X. maltophila; experiment: Synergy of peptide and antibiotic, MIC and FIC (checkerboard); assay type: cell-based; conditions: X. maltophila isolate 44, strain W6896-2; agent alone
Measurement Name: MIC (µg/mL)
Answers are plain numbers, in µg/mL.

The cases that follow already have their MIC on record.
>  <Smiles Entry>
CCN1CCN(C(=O)N[C@@H](C(=O)N[C@@H]2C(=O)N3[C@@H]2SC(C)(C)[C@@H]3C(=O)O)c2ccccc2)C(=O)C1=O

>  <Measurement Name>
MIC

>  <Unit Descriptor>
µg/mL

>  <Reported Measurement>
1020

$$$$
>  <Smiles Entry>
NC[C@H]1O[C@H](O[C@H]2[C@H](O)[C@@H](O[C@H]3O[C@H](CO)[C@@H](O)[C@H](N)[C@H]3O)[C@H](N)C[C@@H]2N)[C@H](N)C[C@@H]1O

>  <Measurement Name>
MIC

>  <Unit Descriptor>
µg/mL

>  <Reported Measurement>
16

$$$$
>  <Smiles Entry>
O=C(O)c1cn(C2CC2)c2cc(N3CCNCC3)c(F)cc2c1=O

>  <Measurement Name>
MIC

>  <Unit Descriptor>
µg/mL

>  <Reported Measurement>
4

$$$$

Okay, next one:
Request body: readout MIC, system X. maltophila, query CC(C)(O/N=C(\C(=O)N[C@@H]1C(=O)N2C(C(=O)[O-])=C(C[n+]3ccccc3)CS[C@H]12)c1csc(N)n1)C(=O)O . Return the value. 64

====

Consider the following compounds; for each one, report its MIC.
system: P. aeruginosa; test: microbe, parasite or virus in culture; conditions: Pseudomonas aeruginosa, P. aeruginosa isolate 25, strain 923-1; agent alone
One number for each entry, in µg/mL.

The cases that follow already have their MIC on record.
>  <Compound>
NC[C@H]1O[C@H](O[C@H]2[C@H](O)[C@@H](O[C@H]3O[C@H](CO)[C@@H](O)[C@H](N)[C@H]3O)[C@H](N)C[C@@H]2N)[C@H](N)C[C@@H]1O [Tobramycin]

>  <Target>
P. aeruginosa

>  <Unit Descriptor>
µg/mL

>  <MIC>
1

$$$$
>  <Compound>
CC(C)(O/N=C(\C(=O)N[C@@H]1C(=O)N2C(C(=O)[O-])=C(C[n+]3ccccc3)CS[C@H]12)c1csc(N)n1)C(=O)O [Ceftazidime]

>  <Target>
P. aeruginosa

>  <Unit Descriptor>
µg/mL

>  <MIC>
4

$$$$
>  <Compound>
C[C@@H](O)[C@H]1C(=O)N2C(C(=O)O)=C(SCCN=CN)C[C@H]12 [Imipenem]

>  <Target>
P. aeruginosa

>  <Unit Descriptor>
µg/mL

>  <MIC>
4

$$$$

Okay, next one:
Any idea what MIC was measured for CCN1CCN(C(=O)N[C@@H](C(=O)N[C@@H]2C(=O)N3[C@@H]2SC(C)(C)[C@@H]3C(=O)O)c2ccccc2)C(=O)C1=O [Piperacillin] ? 64
